Molecular target: T1, PRLR-expressing cells (T47D) (Homo sapiens, UniProt P16471)
T1 construct: a native PRLR expressing cell line (T47D); endogenous in cells; host or cells: T47D
T1 sequence (P16471 25-622): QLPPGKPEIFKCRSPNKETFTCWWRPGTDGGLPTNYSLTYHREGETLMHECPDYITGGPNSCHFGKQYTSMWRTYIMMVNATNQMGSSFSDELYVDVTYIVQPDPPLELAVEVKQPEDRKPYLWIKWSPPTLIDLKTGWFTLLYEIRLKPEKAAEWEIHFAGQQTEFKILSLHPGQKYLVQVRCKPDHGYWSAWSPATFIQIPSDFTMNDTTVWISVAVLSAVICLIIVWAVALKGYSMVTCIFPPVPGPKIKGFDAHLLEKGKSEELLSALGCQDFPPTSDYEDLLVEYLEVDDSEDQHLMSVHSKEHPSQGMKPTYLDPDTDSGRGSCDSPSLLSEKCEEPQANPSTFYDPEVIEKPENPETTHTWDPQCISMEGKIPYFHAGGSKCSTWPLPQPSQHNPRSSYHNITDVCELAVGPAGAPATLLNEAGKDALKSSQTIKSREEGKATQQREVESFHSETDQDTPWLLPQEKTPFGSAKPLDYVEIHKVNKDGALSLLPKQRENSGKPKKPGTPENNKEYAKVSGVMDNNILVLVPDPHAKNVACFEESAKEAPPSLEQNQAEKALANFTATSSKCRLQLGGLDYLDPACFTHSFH
Experiment: Antibody binding and internalization by PRLR-expressing cells (imaging)
Assay type: cell-based
Settings: [mAb] (0.67 nM), alexa488 intensity in intracellular vesicles, 1 h at 37° C.
result type: % Internalization relative to Control I (%)
State the answer as a number, implicitly in %.

// query Which % Internalization relative to Control I is listed for H1H6774P: anti-PRLR antibody, human IgG1 Fc; HCVR/LCVR SEQ ID NOs 34/42 (antibody, V domains shown, human IgG1 Fc) VH: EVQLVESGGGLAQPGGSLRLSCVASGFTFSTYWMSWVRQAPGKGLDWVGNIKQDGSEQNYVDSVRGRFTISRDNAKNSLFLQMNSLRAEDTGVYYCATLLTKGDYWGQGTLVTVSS VL: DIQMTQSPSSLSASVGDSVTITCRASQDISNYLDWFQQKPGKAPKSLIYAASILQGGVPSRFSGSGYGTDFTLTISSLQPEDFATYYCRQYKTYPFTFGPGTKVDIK ?
// result 162.3

// query Request: H1H6959N2: human IgG1 Fc form of H2M6959N2; anti-PRLR; HCVR/LCVR SEQ ID NOs 306/314 (antibody, V domains shown, human IgG1 Fc) VH: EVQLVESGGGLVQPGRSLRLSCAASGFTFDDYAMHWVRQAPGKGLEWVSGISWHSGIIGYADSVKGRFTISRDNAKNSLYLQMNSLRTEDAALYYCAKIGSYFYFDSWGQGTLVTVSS VL: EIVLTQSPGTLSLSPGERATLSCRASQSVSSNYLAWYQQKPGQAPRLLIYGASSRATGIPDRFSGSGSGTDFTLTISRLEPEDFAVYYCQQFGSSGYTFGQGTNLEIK
// result 15.3

// query Another: H1H6782P: anti-PRLR antibody, human IgG1 Fc; HCVR/LCVR SEQ ID NOs 66/74; non-blocking (antibody, V domains shown, human IgG1 Fc) VH: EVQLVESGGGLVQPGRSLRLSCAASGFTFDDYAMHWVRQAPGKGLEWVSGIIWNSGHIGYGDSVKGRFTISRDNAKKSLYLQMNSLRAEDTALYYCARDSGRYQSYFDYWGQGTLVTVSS VL: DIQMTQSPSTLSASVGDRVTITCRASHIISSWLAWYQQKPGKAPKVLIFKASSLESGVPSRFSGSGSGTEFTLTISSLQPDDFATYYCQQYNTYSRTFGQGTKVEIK
// result 179.3

// query Quick one: H1H6800P: anti-PRLR antibody, human IgG1 Fc; HCVR/LCVR SEQ ID NOs 194/202 (antibody, V domains shown, human IgG1 Fc) VH: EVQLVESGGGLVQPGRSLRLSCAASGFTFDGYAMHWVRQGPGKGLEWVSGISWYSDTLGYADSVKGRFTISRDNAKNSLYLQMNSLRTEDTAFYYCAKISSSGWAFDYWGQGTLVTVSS VL: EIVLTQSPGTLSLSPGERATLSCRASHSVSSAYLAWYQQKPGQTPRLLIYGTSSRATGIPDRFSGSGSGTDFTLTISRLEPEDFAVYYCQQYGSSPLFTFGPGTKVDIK
// result 198.3

// query Consider next the molecule H1H6803P: anti-PRLR antibody, human IgG1 Fc; HCVR/LCVR SEQ ID NOs 226/234 (antibody, V domains shown, human IgG1 Fc) VH: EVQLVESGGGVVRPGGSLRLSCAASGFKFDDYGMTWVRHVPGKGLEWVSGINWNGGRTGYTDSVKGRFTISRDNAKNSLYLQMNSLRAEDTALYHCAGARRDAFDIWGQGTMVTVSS VL: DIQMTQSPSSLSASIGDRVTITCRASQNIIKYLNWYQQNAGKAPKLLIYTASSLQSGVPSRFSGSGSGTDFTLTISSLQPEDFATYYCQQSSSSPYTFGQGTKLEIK in the same way.
// result 190.5

Values were extracted from patent US9688764B2.
